Every entry's value here was drawn from paper PMC4505687.

Target: 5-HT3ABr2 receptors (Homo sapiens, UniProt P46098)
Sequence (P46098 24-478): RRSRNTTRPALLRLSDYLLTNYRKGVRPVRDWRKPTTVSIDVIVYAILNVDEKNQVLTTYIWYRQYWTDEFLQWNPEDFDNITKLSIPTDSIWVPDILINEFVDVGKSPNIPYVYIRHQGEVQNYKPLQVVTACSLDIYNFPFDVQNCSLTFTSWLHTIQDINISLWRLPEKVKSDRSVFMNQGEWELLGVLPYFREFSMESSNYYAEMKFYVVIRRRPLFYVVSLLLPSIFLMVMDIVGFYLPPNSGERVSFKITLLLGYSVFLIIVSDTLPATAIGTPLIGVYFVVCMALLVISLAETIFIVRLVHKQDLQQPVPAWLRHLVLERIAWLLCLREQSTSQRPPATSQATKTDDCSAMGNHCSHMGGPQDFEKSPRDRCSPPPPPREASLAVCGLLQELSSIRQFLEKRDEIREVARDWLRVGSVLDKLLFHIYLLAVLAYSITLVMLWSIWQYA
Assay: 5-HT-induced macroscopic currents, two-electrode voltage-clamp in Xenopus oocytes
assay_endpoint: IC50 (µM)
Express it in µM; write the number only.

Could you tell me which IC50 is on file for "C=C(C)[C@@H]1[C@H]2OC(=O)[C@@H]1[C@]1(O)C[C@H]3O[C@]34C(=O)O[C@H]2[C@]14C" ?
17
